target_system: human TGR5 receptor (Homo sapiens, UniProt Q8TDU6)
Sequence (Q8TDU6 whole entry): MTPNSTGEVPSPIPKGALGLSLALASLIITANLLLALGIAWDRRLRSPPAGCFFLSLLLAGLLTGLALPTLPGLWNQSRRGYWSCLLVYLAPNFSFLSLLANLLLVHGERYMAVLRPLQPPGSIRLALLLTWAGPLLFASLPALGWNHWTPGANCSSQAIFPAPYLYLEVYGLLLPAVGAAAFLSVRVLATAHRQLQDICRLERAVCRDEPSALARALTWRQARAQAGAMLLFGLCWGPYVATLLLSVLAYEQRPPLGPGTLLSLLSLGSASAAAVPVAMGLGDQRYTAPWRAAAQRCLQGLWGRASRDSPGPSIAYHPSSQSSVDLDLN
protocol: Human TGR5 cAMP production assay
condition: human TGR5, luminescent cAMP assay; coded A-D; read-out: Human TGR5 Lum. cAMP Activity (EC50)
pEC50: −log10 of the molar value.
A collection of molecules and their measured pEC50

// below: answered molecules
[
  {
    "molecule": "CC[C@H](NS(=O)(=O)c1ccccc1C(F)(F)F)c1cccc(-c2ccncc2OC)c1",
    "assay_metric": "pEC50",
    "result": "> 7.00"
  },
  {
    "molecule": "Cc1cnccc1-c1cccc([C@H](C)N(CCCC(=O)NCCS(=O)(=O)NCC(=O)O)S(=O)(=O)c2cccc(Cl)c2Cl)c1 [Compound 36AA]",
    "assay_metric": "pEC50",
    "result": "> 7.00"
  },
  {
    "molecule": "COC(=O)C(NS(=O)(=O)c1cccc(C(F)(F)F)c1)c1cccc(-c2ccncc2OC)c1 (stereo not drawn)",
    "assay_metric": "pEC50",
    "result": "4.52 to 6.00"
  },
  {
    "molecule": "O=S(=O)(NCc1cc(-c2ccncc2Cl)ccc1F)c1cccc(C(F)(F)F)c1",
    "assay_metric": "pEC50",
    "result": "4.52 to 6.00"
  },
  {
    "molecule": "Cc1cnccc1-c1cccc([C@H](CCCC#N)N(CCCC(=O)OC(C)(C)C)S(=O)(=O)c2cccc(Cl)c2C)c1 [Compound 15AC]",
    "assay_metric": "pEC50",
    "result": "6.00 to 7.00"
  }
]

[in] Endpoint output: pEC50 of `O=S(=O)(NCc1cccc(-c2ccncc2)c1)c1ccccc1C(F)(F)F` . Value?
[out] 4.52 to 6.00

[in] Endpoint output: pEC50 of CCc1cnccc1-c1cccc(C2CN(S(=O)(=O)CC(=O)O)CCN2S(=O)(=O)c2cccc(Cl)c2C)c1 (stereo not drawn) . Value?
[out] > 7.00

[in] Endpoint output: pEC50 of Cc1cnccc1-c1cccc(C(C)(C)N(CCCC(=O)N[C@@H](C)C(=O)O)S(=O)(=O)c2cccc(Cl)c2C)c1 [Compound 21AF] . Value?
[out] > 7.00

[in] Endpoint output: pEC50 of `CC(=O)N(CCCCN([C@@H](C)c1cccc(-c2ccncc2C)c1)S(=O)(=O)c1cccc(Cl)c1C)CCC(=O)O` . Value?
[out] 6.00 to 7.00

[in] Endpoint output: pEC50 of COc1cnccc1-c1cccc(C(CO)NS(=O)(=O)c2cccc(C(F)(F)F)c2)c1 (racemic) . Value?
[out] 6.00 to 7.00

[in] Endpoint output: pEC50 of `Cc1cnccc1-c1cccc([C@H](C)N(CCCC(=O)NCCNC(=O)NCCC(=O)O)S(=O)(=O)c2cccc(Cl)c2C)c1` . Value?
[out] > 7.00

[in] Endpoint output: pEC50 of Cc1cnccc1-c1cccc([C@H](C)N(CCCC(=O)NCCN)S(=O)(=O)c2ccccc2C(F)(F)F)c1 [Compound 20BX] . Value?
[out] > 7.00

[in] Endpoint output: pEC50 of Cc1cnccc1-c1cccc(C(CCC(=O)O)NS(=O)(=O)c2ccccc2C(F)(F)F)c1 (stereo not drawn) . Value?
[out] 4.52 to 6.00

[in] Endpoint output: pEC50 of `COc1cnccc1-c1cccc(C(C)(C)NS(=O)(=O)c2ccccc2C(F)(F)F)c1` . Value?
[out] > 7.00

[in] Endpoint output: pEC50 of `O=S(=O)(NCc1cccc(-c2ccncn2)c1)c1cccc(C(F)(F)F)c1` . Value?
[out] 4.52 to 6.00

From: patent US11236055B2
